- tested_on: Human Polθ polymerase domain (aa1820-2590) (Homo sapiens, UniProt O75417)
- Sequence (O75417 1820-2590): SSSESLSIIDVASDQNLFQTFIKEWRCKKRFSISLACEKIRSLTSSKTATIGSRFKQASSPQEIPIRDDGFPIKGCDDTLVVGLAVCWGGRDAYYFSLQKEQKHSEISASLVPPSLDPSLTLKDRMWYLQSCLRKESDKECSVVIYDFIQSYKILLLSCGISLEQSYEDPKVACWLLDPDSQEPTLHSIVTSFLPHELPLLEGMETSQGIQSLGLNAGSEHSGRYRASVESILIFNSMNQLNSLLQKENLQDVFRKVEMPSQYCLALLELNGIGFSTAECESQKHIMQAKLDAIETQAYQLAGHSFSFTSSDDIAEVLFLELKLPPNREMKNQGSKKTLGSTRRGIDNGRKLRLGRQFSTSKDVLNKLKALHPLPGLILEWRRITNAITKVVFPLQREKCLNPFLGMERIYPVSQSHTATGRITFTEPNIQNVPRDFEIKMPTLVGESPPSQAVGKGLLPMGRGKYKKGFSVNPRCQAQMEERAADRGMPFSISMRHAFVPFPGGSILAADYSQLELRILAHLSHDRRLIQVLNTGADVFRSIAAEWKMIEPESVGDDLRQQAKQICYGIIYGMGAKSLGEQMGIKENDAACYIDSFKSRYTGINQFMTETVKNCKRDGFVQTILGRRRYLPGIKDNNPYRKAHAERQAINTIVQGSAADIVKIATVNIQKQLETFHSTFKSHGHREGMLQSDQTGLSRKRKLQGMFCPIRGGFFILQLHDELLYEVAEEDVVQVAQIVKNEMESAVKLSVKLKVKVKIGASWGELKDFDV
Counter-ions that a name gives are not always drawn.
As shown below, each of these compounds has a reported Ki value.

compound	unit_tag	Ki
Cc1cc(C(F)(F)F)cc(N2C(=O)C[C@@H]3CN(CC4CN(C)CCO4)c4c(Cl)cccc4N(C)C(=O)[C@H]32)n1 (single isomer, unassigned) [Example 120a, hydrochloride]	nM	1.39
Cc1cc(C(F)(F)F)cc(N2C(=O)C[C@@H]3CN(C[C@@H]4CCCN4C)c4c(Cl)cccc4N(C)C(=O)[C@H]32)n1 (racemic) [Example 118b]	nM	6.04
Cc1cc(C(F)(F)F)cc(N2C(=O)C[C@@H]3CN(CCN4CC[C@H](C(=O)N(C)C)C4)c4c(C)cccc4N(C)C(=O)[C@H]32)n1	nM	0.969
